Sourced from patent US5466671A

Field: minimal inhibitory concentration (MIC). Provide a value for each of the compounds that follow.
tested on: E. coli 11775; assay: Minimal inhibitory concentration (liquid culture); conditions: inoculum 1200 CFU/ml; a-b = highest concentration with growth - lowest without growth
Residues, ends and D or L forms follow the SMILES beside them.

Incoming: May I ask what minimal inhibitory concentration (MIC) has been recorded for CC[C@H](C)[C@H](NC(=O)[C@@H]1CCCN1C(=O)[C@H](C)NC(=O)[C@@H]1CCCN1C(=O)[C@H](CCCNC(=N)N)NC(=O)[C@@H]1CCCN1C(=O)[C@H](CCCCN)NC(=O)[C@@H](N)CO)C(=O)N[C@@H](CCCCN)C(=O)N1CCC[C@H]1C(=O)N[C@@H](CCCNC(=N)N)C(=O)N1CCC[C@H]1C(=O)N1CCC[C@H]1C(=O)N[C@@H](Cc1c[nH]cn1)C(=O)N1CCC[C@H]1C(=O)N[C@@H](CCCNC(=N)N)C(=O)N[C@@H](CC(C)C)C(=O)O [Cd 3-] (H-SKPRPAPIKPRPPHPRL-OH) ?
Outgoing: 0.1 to 0.5 mg/L

Incoming: Please answer likewise for CC(C)C[C@H](NC(=O)[C@H](CCCNC(=N)N)NC(=O)[C@@H]1CCCN1C(=O)[C@H](Cc1c[nH]cn1)NC(=O)[C@@H]1CCCN1C(=O)[C@@H]1CCCN1C(=O)[C@H](CCCNC(=N)N)NC(=O)[C@@H]1CCCN1C(=O)[C@@H]1CCCN1C(=O)[C@@H](NC(=O)[C@H](CCC(N)=O)NC(=O)[C@H](CCC(N)=O)NC(=O)[C@@H]1CCCN1C(=O)[C@H](CCCNC(=N)N)NC(=O)[C@@H]1CCCN1C(=O)[C@H](CCCCN)NC(=O)[C@@H](N)CC(N)=O)C(C)C)C(=O)O [Yj -S] (H-NKPRPQQVPPRPPHPRL-OH)
Outgoing: 0.1 to 0.5 mg/L

###

Tested on: E. coli Apid^R
Experiment: Minimal inhibitory concentration (liquid culture)
Assay type: cell-based
Conditions: inoculum 1000 CFU/ml; a-b = highest concentration with growth - lowest without growth
Source text: For details see `Experimental Procedures`.
Residues, ends and D or L forms follow the SMILES beside them.
Recorded Metric: minimal inhibitory concentration (MIC)

Incoming: May I ask what minimal inhibitory concentration (MIC) has been recorded for CC[C@H](C)[C@H](NC(=O)[C@H](Cc1ccc(O)cc1)NC(=O)[C@@H](NC(=O)[C@@H]1CCCN1C(=O)[C@H](CCCNC(=N)N)NC(=O)[C@@H](N)CC(N)=O)C(C)C)C(=O)N1CCC[C@H]1C(=O)N1CCC[C@H]1C(=O)N1CCC[C@H]1C(=O)N[C@@H](CCCNC(=N)N)C(=O)N1CCC[C@H]1C(=O)N1CCC[C@H]1C(=O)N[C@@H](Cc1c[nH]cn1)C(=O)N1CCC[C@H]1C(=O)N[C@@H](CCCNC(=N)N)C(=O)N[C@@H](CC(C)C)C(=O)O [Bb-A] (H-NRPVYIPPPRPPHPRL-OH) ?
Outgoing: > 40 µg/mL

Incoming: Please answer likewise for CC[C@H](C)[C@H](NC(=O)[C@@H]1CCCN1C(=O)[C@H](C)NC(=O)[C@@H]1CCCN1C(=O)[C@H](CCCNC(=N)N)NC(=O)[C@@H]1CCCN1C(=O)[C@H](CCCCN)NC(=O)[C@H](CO)NC(=O)[C@@H]1CCCN1C(=O)[C@H](CCCCN)NC(=O)CN)C(=O)N[C@@H](CCCCN)C(=O)N1CCC[C@H]1C(=O)N[C@@H](CCCNC(=N)N)C(=O)N1CCC[C@H]1C(=O)N1CCC[C@H]1C(=O)N[C@@H](Cc1c[nH]cn1)C(=O)N1CCC[C@H]1C(=O)N[C@@H](CCCNC(=N)N)C(=O)N[C@@H](CC(C)C)C(=O)O [Cd 3+] (H-GKPSKPRPAPIKPRPPHPRL-OH)
Outgoing: 0.5 to 1 µg/mL

Incoming: Please answer likewise for CC(C)C[C@H](NC(=O)[C@H](CCCNC(=N)N)NC(=O)[C@@H]1CCCN1C(=O)[C@H](Cc1c[nH]cn1)NC(=O)[C@@H]1CCCN1C(=O)[C@@H]1CCCN1C(=O)[C@H](CCCNC(=N)N)NC(=O)[C@@H]1CCCN1C(=O)[C@@H]1CCCN1C(=O)[C@@H](NC(=O)[C@H](CCC(N)=O)NC(=O)[C@H](CCC(N)=O)NC(=O)[C@@H]1CCCN1C(=O)[C@H](CCCNC(=N)N)NC(=O)[C@@H]1CCCN1C(=O)[C@H](CCCCN)NC(=O)[C@H](CC(N)=O)NC(=O)[C@@H](N)CO)C(C)C)C(=O)O [Yj +S] (H-SNKPRPQQVPPRPPHPRL-OH)
Outgoing: 1 to 5 µg/mL
